System: SW-620 colon
Experimental details: NCI tumour cell line growth inhibition, 48 h
Reported metric: TGI

>  <Smiles record>
O=c1ccn(CC2(CO)CCC2)c(=O)[nH]1

>  <Assay result>
> 100 µM

$$$$

With SW-620 colon as the test system, CC(=O)Nc1ccc2c(c1)C(c1ccccc1Cl)=Nc1c(n[nH]c1C)N2 showed TGI of > 25 µM

// TGI (SW-620 colon) for COc1cc2oc(=O)ccc2cc1C(=O)CC(C)C = > 100 µM

###

System: SW-620 colon
Experimental details: NCI tumour cell line growth inhibition, 48 h; in the data active = GI50 below about 0.43 µM; inactive = the rest
Mark one answer only. Choices: 1 for active, -1 for inactive

Example results:
>  <Molecule>
CC(N)C(Cc1ccc(Cl)cc1)c1ccc(Cl)cc1 (stereo not given)

>  <Experimental target>
SW-620 colon

>  <Group label>
-1

$$$$
>  <Molecule>
O=Nc1ccc(O)c(=O)cc1

>  <Experimental target>
SW-620 colon

>  <Group label>
-1

$$$$
>  <Molecule>
CCN(CC)c1ccc(/C=N/NC(=O)CSc2nc3ccccc3c(=O)n2CCc2ccc(S(N)(=O)=O)cc2)c(O)c1

>  <Experimental target>
SW-620 colon

>  <Group label>
-1

$$$$
>  <Molecule>
CCOC(=O)/C(=C/N1CCN(C(=O)c2ccco2)C1=S)C(=O)c1ccccc1

>  <Experimental target>
SW-620 colon

>  <Group label>
-1

$$$$
>  <Molecule>
Cc1nc2ccc(Nc3nc(Cl)nc(N4CCOCC4)n3)cc2n1Cc1ccccc1

>  <Experimental target>
SW-620 colon

>  <Group label>
-1

$$$$

Prompt: Check the results log: what was the call for Fc1cc2[nH]ncc2c2c3c(c(-c4cn[nH]c4C(F)(F)F)nc12)CCCC3 ?
Completion: -1

Prompt: Recorded test call requested for CCOC(=O)c1cc(C(=O)c2cc(OC)c(OC)c(OC)c2)n2ncccc12
Completion: 1

Prompt: Each molecule tested received a call. Report the one for Cc1nc([P+](c2ccccc2)(c2ccccc2)c2ccccc2)c(Sc2sc(-c3ccccc3)nc2[P+](c2ccccc2)(c2ccccc2)c2ccccc2)o1 .
Completion: -1

Prompt: Could you kindly confirm the outcome this assay logged for COc1ccc(C2=N[C@@H](Cc3ccccc3)C(=O)Nc3ccsc32)cc1 ?
Completion: -1

Prompt: // param item: NS(=O)(=O)c1ccc(Nc2cc(-c3cccc(O)c3)[nH]n2)cc1 ; yields the recorded call
Completion: -1
